System: Salmonella typhimurium
Assay: Suppression in H2O2-iduced mutagenesity in Salmonella Typhimurium TA102 assessed as 100 to 50 % suppression of revertant formation by Ames assay
Details: Salmonella enterica
observable: IC50 (nM)

>>> measured_value("CCNC1=C(F)C(=O)c2c(F)c(F)c(F)c(F)c2C1=O")
1000
>>> measured_value("CC(C)(C)NC1=C(F)C(=O)c2c(F)c(F)c(F)c(F)c2C1=O")
6900
>>> measured_value("CC1=C(SCCO)C(=O)c2c(F)c(F)c(F)c(F)c2C1=O")
440
>>> measured_value("O=C1C(F)=C(Nc2ccccc2)C(=O)c2c(F)c(F)c(F)c(F)c21")
150
>>> measured_value("CC1=C(Nc2ccccc2)C(=O)c2c(F)c(F)c(F)c(F)c2C1=O")
21800
>>> measured_value("CCN(CC)C1=C(F)C(=O)c2c(F)c(F)c(F)c(F)c2C1=O")
2700
